System: OPM-2 cells
Test: Cell proliferation assay Method B, OPM-2
Format: cell-based
Conditions: Homo sapiens, Multiple Myeloma, 72 hours, read-out: antiproliferative activity IC50, OPM-2
pIC50: −log10 of the molar value.
Measurement type: pIC50

Write down the reported pIC50 (system: OPM-2 cells) of CS(=O)(=O)N1CCN(Cc2cc3nc(-c4cccc5[nH]ncc45)nc(N4CCOCC4)c3s2)CC1 [GDC-0941, reference compound]
6.00 to 7.00

====

Measurement type: melting point

Worked examples, 2 compounds total:
Compound	melting point
CCNc1ccc(-c2nc(N3CCOCC3)c3sc(CN(C)c4ncc(C(=O)NO)cn4)cc3n2)cc1	185 to 187 °C
CN(Cc1cc2nc(-c3ccc(N)cc3Cl)nc(N3CCOCC3)c2s1)c1ncc(C(=O)NO)cn1	179 to 183 °C

Tell me measured melting point for CN(Cc1cc2nc(-c3ccc(N)c([N+](=O)[O-])c3)nc(N3CCOCC3)c2s1)c1ncc(C(=O)NO)cn1 please.
202 to 206 °C

Provide measured melting point value, entry: CS(=O)(=O)N1CCN(Cc2cc3nc(-c4cccc5[nH]ncc45)nc(N4CCN(CCCCCC(=O)NO)CC4)c3s2)CC1
140 to 145 °C

Return the recorded melting point value; entry: CNc1ncc(-c2nc(N3CCOCC3)c3sc(NCCCCC(=O)NO)cc3n2)cn1
206 to 210 °C

Please report melting point for the following compound: CN(Cc1cc2nc(-c3ccccc3)nc(N3CCOCC3)c2s1)c1ncc(C(=O)NO)cn1
199 to 200 °C

Consider the compound Nc1ccc(-c2nc(N3CCOCC3)c3sc(S(=O)(=O)Nc4ncc(C(=O)NO)cn4)cc3n2)cc1 and give its recorded melting point.
197 to 205 °C

Annotate the compound CC(=O)Nc1ccc(-c2nc(N3CCOCC3)c3sc(CN(C)c4ncc(C(=O)NO)cn4)cc3n2)cc1 with its measured melting point.
228 to 230 °C

Entry CN(Cc1cc2nc(-c3cccc(O)c3)nc(N3CCOCC3)c2s1)c1ncc(C(=O)NO)cn1 needs its melting point filled in; supply it.
175 to 181 °C

Determine its reported melting point: CNc1ccc(-c2nc(N3CCOCC3)c3sc(CN(C)c4ncc(C(=O)NO)cn4)cc3n2)cc1
218 to 220 °C

Output melting point of CN(Cc1cc2nc(-c3cccc4[nH]ncc34)nc(N3CCOCC3)c2s1)c1ncc(C(=O)NO)cn1
197 to 200 °C

Return the recorded melting point value; entry: CNc1ccc(-c2nc(N3CCOCC3)c3sc(S(=O)(=O)NCC4CCN(c5ncc(C(=O)NO)cn5)CC4)cc3n2)cn1
190 to 197 °C

Determine its reported melting point: O=C(CCCCCCN1CCN(Cc2cc3nc(-c4cccc5[nH]ncc45)nc(N4CCOCC4)c3s2)CC1)NO
119 to 122 °C

Give the measured melting point for CC(C)(C)CN(Cc1cc2nc(-c3cccc4[nH]ncc34)nc(N3CCOCC3)c2s1)c1ncc(C(=O)NO)cn1
240 to 242 °C

Read the entry COc1ccc(-c2nc(N3CCOCC3)c3sc(CN(C)c4ncc(C(=O)NO)cn4)cc3n2)cc1 and write its reported melting point.
247 °C (dec.)

Tell me melting point reported for CN(Cc1cc2nc(-c3cnc(CN)nc3)nc(N3CCOCC3)c2s1)c1ncc(C(=O)NO)cn1
> 300 °C

Report melting point, nothing else, for this compound: CNCCOc1ccc(-c2nc(N3CCOCC3)c3sc(CN(C)c4ncc(C(=O)NO)cn4)cc3n2)cn1
170 to 175 °C

Return melting point (reported value) for this compound: CN(Cc1cc2nc(-c3ccc4c(c3)NCCO4)nc(N3CCOCC3)c2s1)c1ncc(C(=O)NO)cn1
170 to 183 °C

# return recorded melting point for input Nc1ncc(-c2nc(N3CCOCC3)c3sc(NCCCC(=O)NO)cc3n2)cn1
220 to 230 °C
